# Test system: Arabidopsis thaliana plants
# Assay Summary: SOA1 phenotypic analysis of herbicide-treated plants (incl. MIC/Tmic)
# Assay type: in vivo
# Test Conditions: herbicide sprayed on 21-day plants; numeric value standardized to mock treated
newLeafChlorosis, Dev. values for the compounds below.
Readout Label: newLeafChlorosis, Dev.

{"Compound": "O=C(O)COc1ccc(Cl)cc1Cl", "Result": 1}
{"Compound": "O=C(O)CNCP(=O)(O)O [Glyphosate]", "Result": 2}
{"Compound": "CN(C)C(=O)Nc1ccc(Cl)c(Cl)c1", "Result": 2}
{"Compound": "CP(=O)(O)CCC(N)C(=O)O (stereo not drawn) [Glufosinate]", "Result": 3}
{"Compound": "C[n+]1ccc(-c2cc[n+](C)cc2)cc1", "Result": 1}
{"Compound": "c1cc[n+]2c(c1)-c1cccc[n+]1CC2", "Result": 1}

* * *

# Test system: Arabidopsis thaliana plants
# Assay Summary: SOA1 phenotypic analysis of herbicide-treated plants (incl. MIC/Tmic)
# Type: in vivo
# Test Conditions: herbicide sprayed on 21-day plants; numeric value standardized to mock treated

{"Compound": "CP(=O)(O)CCC(N)C(=O)O (stereo not drawn) [Glufosinate]", "leafTwisting, Dev.": 1}
{"Compound": "CN(C)C(=O)Nc1ccc(Cl)c(Cl)c1", "leafTwisting, Dev.": 0}
{"Compound": "c1cc[n+]2c(c1)-c1cccc[n+]1CC2", "leafTwisting, Dev.": 0}
{"Compound": "O=C(O)CNCP(=O)(O)O [Glyphosate]", "leafTwisting, Dev.": 0}
{"Compound": "O=C(O)COc1ccc(Cl)cc1Cl", "leafTwisting, Dev.": 2}
{"Compound": "C[n+]1ccc(-c2cc[n+](C)cc2)cc1", "leafTwisting, Dev.": 0}

* * *

Measured leafCurling, Dev. by item
# Tested on: Arabidopsis thaliana plants
# Assay Summary: SOA1 phenotypic analysis of herbicide-treated plants (incl. MIC/Tmic)
# Assay type: in vivo
# Test Conditions: herbicide sprayed on 21-day plants; numeric value standardized to mock treated
Readout Label: leafCurling, Dev.

{"Molecule": "O=C(O)CNCP(=O)(O)O [Glyphosate]", "Quantitative Result": 0}
{"Molecule": "C[n+]1ccc(-c2cc[n+](C)cc2)cc1", "Quantitative Result": 2}
{"Molecule": "CP(=O)(O)CCC(N)C(=O)O (stereo not drawn) [Glufosinate]", "Quantitative Result": 2}
{"Molecule": "c1cc[n+]2c(c1)-c1cccc[n+]1CC2", "Quantitative Result": 2}
{"Molecule": "CN(C)C(=O)Nc1ccc(Cl)c(Cl)c1", "Quantitative Result": 1}
{"Molecule": "O=C(O)COc1ccc(Cl)cc1Cl", "Quantitative Result": 1}

* * *

# Test system: Saccharomyces cerevisiae wild type strain BY4743
# Assay Summary: AF1 yeast metabolite analysis by GC-MS and LC-MS
# Format: cell-based
# Test Conditions: P < 0.1; 2×MIC, two hours
Recorded # Compounds perturbed by treatment, one value per entry.
Readout Label: # Compounds perturbed by treatment

{"Molecule": "OC(Cn1cncn1)(Cn1cncn1)c1ccc(F)cc1F", "Test System": "Saccharomyces cerevisiae wild type strain BY4743", "Quantitative Result": 6}
{"Molecule": "C[C@@H]1[C@H](O)[C@@H](C)/C=C/C=C/C=C/C=C/C=C/C=C/C=C/[C@H](O[C@@H]2O[C@H](C)[C@@H](O)[C@H](N)[C@@H]2O)C[C@@H]2O[C@](O)(C[C@@H](O)C[C@@H](O)[C@H](O)CC[C@@H](O)C[C@@H](O)CC(=O)O[C@H]1C)C[C@H](O)[C@H]2C(=O)O", "Test System": "Saccharomyces cerevisiae wild type strain BY4743", "Quantitative Result": 21}
{"Molecule": "CC[C@@H]([C@H](C)O)n1ncn(-c2ccc(N3CCN(c4ccc(OC[C@@H]5CO[C@@](Cn6cncn6)(c6ccc(F)cc6F)C5)cc4)CC3)cc2)c1=O", "Test System": "Saccharomyces cerevisiae wild type strain BY4743", "Quantitative Result": 4}
{"Molecule": "CC(=O)N1CCN(c2ccc(OCC3COC(Cn4ccnc4)(c4ccc(Cl)cc4Cl)O3)cc2)CC1 (stereo not shown)", "Test System": "Saccharomyces cerevisiae wild type strain BY4743", "Quantitative Result": 15}

Values were extracted from patent US20040002842A1.
